Give TGI for every item shown.
Test system: HCT-116 colon
assay_text: NCI tumour cell line growth inhibition, 48 h

Worked cases, TGI given:
O=C(N=Nc1ccccc1Cl)NNc1ccccc1Cl :: > 100 µM
CC1OC(=O)C(O)=C1O (centres undefined) :: > 100 µM
CCN(CC)C(=O)CCN1CC1 :: > 10 µM
COc1cc(/C=C/c2ccc(O)c(OC)c2)cc(OC)c1 :: > 100 µM
O=c1c2nc(-c3ccccc3)oc2n(-c2ccccc2)c(=O)n1-c1ccccc1 :: > 46.4 µM

Provide TGI for all items below, preserving their order.
1. O=C(Nc1nn[nH]n1)c1nc(-c2ccccc2)cc(=O)[nH]1
2. CC1(C)CC[C@]2(C(=O)O)CC[C@]3(C)[C@H](C(=O)C=C4[C@@]5(C)C=C(C#N)C(=O)C(C)(C)[C@@H]5CC[C@]43C)[C@@H]2C1
3. COC(=O)c1c(-c2cccs2)oc(-c2cccs2)c1C(=O)OC
4. C#CC1=CC(=O)C(OC)=CC1=O
5. O=C1/C(=C/c2cccc3ccccc23)CCc2ccc([N+](=O)[O-])cc21
6. COC(=O)Nc1nc2ccc(NC(=O)c3ccc(I)cc3)cc2[nH]1
7. CS(=O)(=O)c1ccc(Nc2nc(N[C@H]3CCCC[C@H]3N)nc3cc[nH]c(=O)c23)cc1
8. CCOC(=O)C(Cc1ccc(N(CCCl)CCCl)cc1)NC(=O)C(Cc1ccccc1)NC=O (centres undefined)

> 100 µM
4.76 µM
> 100 µM
40 µM
71 µM
> 100 µM
16.8 µM
0.535 µM
